Assay: Aqueous solubility, Shake-Flask method and HPLC
Assay type: physicochemical
Details: water with 2% DMSO
// values below are reported solubility
Measured Quantity: solubility (µg/mL)

Molecule: Fc1ccc(-c2ccc(CSc3nnc(-c4ccc5c(c4)OCCO5)o3)cc2)cn1 [Compound 13f]
Measured Quantity: solubility
Value Qualifier: =
Result: 7
--
Molecule: Cc1ccc(-c2ccc(CSc3nnc(-c4ccc5c(c4)OCCO5)o3)cc2)nc1 [Compound 13e]
Measured Quantity: solubility
Value Qualifier: <
Result: 1
--
Molecule: N#Cc1ccc(-c2ccc(CSc3nnc(-c4ccc5c(c4)OCCO5)o3)cc2)nc1 [Compound 13d]
Measured Quantity: solubility
Value Qualifier: =
Result: 78
--
Molecule: Fc1ccc(-c2ccc(CSc3nnc(-c4ccc5c(c4)OCCO5)o3)cn2)cn1 [Compound 18c]
Measured Quantity: solubility
Value Qualifier: <
Result: 1
--
Molecule: NC(=O)c1cc(F)ccc1-c1ccc(CSc2nnc(-c3ccc4c(c3)OCCO4)o2)cc1
Measured Quantity: solubility
Value Qualifier: =
Result: 34
--
Molecule: N#Cc1cc(F)ccc1-c1ccc(CSc2nnc(-c3ccc4c(c3)OCCO4)o2)cc1
Measured Quantity: solubility
Value Qualifier: <
Result: 1

====

Biological target: GSK-3β (h) (Homo sapiens, UniProt P49841)
Sequence (P49841 whole entry): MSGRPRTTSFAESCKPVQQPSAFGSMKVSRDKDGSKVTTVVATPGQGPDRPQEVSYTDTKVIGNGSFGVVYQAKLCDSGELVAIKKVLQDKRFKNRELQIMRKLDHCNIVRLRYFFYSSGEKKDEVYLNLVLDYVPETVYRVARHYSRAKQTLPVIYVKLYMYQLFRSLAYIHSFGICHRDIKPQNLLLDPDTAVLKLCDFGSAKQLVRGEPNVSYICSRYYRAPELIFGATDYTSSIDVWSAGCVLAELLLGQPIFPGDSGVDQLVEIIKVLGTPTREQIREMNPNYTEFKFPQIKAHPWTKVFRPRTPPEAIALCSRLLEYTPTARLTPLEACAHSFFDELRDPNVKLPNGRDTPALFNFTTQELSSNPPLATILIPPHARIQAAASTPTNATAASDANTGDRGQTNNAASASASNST
Assay: IC50 determination GSK-3β
Assay type: biochemical
Measured Quantity: IC50 (nM)

Molecule: NC(=O)c1cc(F)ccc1-c1ccc(CSc2nnc(-c3ccc4c(c3)OCCO4)o2)cc1 [Compound 27]
Measured Quantity: IC50
Result: 14
